Hey, just so you know, these numbers are from patent US20170073337A1.

// endpoint pIC50 / system CYP3A4 (Homo sapiens)
pIC50: −log10 of the molar value.

Below, each entry is followed by its recorded pIC50 result.
[
  {
    "item.smiles": "C[C@@H]1SC(N)=N[C@](C)(c2cc(NC(=O)c3ccc(C#N)cn3)ccc2F)[C@@H]1F",
    "pIC50": "≤ 4.70"
  },
  {
    "item.smiles": "C[C@H]1SC(N)=N[C@](C)(c2cc(NC(=O)c3ncc(OCC(F)(F)F)cn3)ccc2F)[C@H]1F",
    "pIC50": "≤ 4.70"
  }
]

Q: Enter recorded pIC50 with CYP3A4 (Homo sapiens) for C[C@]1(c2cc(NC(=O)c3ccc(C#N)cn3)ccc2F)N=C(N)O[C@H](CF)[C@@H]1OCC(F)(F)F here.
Sequence (P08684 whole entry): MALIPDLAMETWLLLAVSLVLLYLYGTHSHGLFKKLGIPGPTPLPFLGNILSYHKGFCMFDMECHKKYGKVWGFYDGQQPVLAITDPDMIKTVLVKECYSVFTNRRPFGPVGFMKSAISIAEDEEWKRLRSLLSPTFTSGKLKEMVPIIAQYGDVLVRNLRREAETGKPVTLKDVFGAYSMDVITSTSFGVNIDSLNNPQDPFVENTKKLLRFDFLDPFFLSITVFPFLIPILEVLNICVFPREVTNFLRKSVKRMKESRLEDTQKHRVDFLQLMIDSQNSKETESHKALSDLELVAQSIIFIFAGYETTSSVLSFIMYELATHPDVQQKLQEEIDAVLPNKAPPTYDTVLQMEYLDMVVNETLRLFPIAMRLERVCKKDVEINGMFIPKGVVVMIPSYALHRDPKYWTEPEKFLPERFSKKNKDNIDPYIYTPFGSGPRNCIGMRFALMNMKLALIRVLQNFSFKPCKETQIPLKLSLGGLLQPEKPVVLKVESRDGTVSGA
A: ≤ 4.70

Q: Enter recorded pIC50 with CYP3A4 (Homo sapiens) for C[C@]1(c2cc(NC(=O)c3ccc(F)cn3)ccc2F)N=C(N)OCC12CC(F)(F)C2 here.
A: ≤ 4.70

Q: Enter recorded pIC50 with CYP3A4 (Homo sapiens) for COc1cnc(C(=O)Nc2ccc(F)c([C@@]3(C)N=C(N)S[C@H](C)[C@@H]3F)c2)cn1 here.
A: ≤ 4.70

Q: Enter recorded pIC50 with CYP3A4 (Homo sapiens) for CO[C@H]1[C@@H](C)SC(N)=N[C@]1(C)c1cc(NC(=O)c2ccc(C#N)cn2)ccc1F here.
A: ≤ 4.70

Q: Enter recorded pIC50 with CYP3A4 (Homo sapiens) for C[C@@H]1[C@@H](C(F)(F)F)OC(N)=N[C@]1(C)c1cc(NC(=O)c2ccc(C#N)cn2)ccc1F here.
A: ≤ 4.70

Q: Enter recorded pIC50 with CYP3A4 (Homo sapiens) for CC[C@H]1SC(N)=N[C@](C)(c2cc(NC(=O)c3ncc(C#N)cc3C)ccc2F)[C@H]1F here.
A: ≤ 5.00

Q: Enter recorded pIC50 with CYP3A4 (Homo sapiens) for C[C@H]1[C@@H](C(F)F)OC(N)=N[C@]1(C)c1cc(NC(=O)c2cnc(OCF)cn2)ccc1F here.
A: ≤ 4.70

Q: Enter recorded pIC50 with CYP3A4 (Homo sapiens) for C[C@H]1SC(N)=N[C@](C)(c2cc(NC(=O)c3ncc(C#N)cc3Cl)ccc2F)[C@H]1F here.
A: ≤ 4.70

Q: Enter recorded pIC50 with CYP3A4 (Homo sapiens) for COCC(F)(F)[C@H]1OC(N)=N[C@](C)(c2cc(NC(=O)c3ccc(C#N)cn3)ccc2F)[C@H]1F here.
A: ≤ 5.00

Q: Enter recorded pIC50 with CYP3A4 (Homo sapiens) for C[C@]1(c2cc(NC(=O)c3ccc(C#N)cn3)ccc2F)N=C(N)OCC12CC(F)(F)C2 here.
A: ≤ 4.70

Q: Enter recorded pIC50 with CYP3A4 (Homo sapiens) for C[C@]1(c2cc(NC(=O)c3cnc(OCF)cn3)ccc2F)N=C(N)OCC12CC(F)(F)C2 here.
A: ≤ 4.70

Q: Enter recorded pIC50 with CYP3A4 (Homo sapiens) for CC[C@H]1SC(N)=N[C@](C)(c2cc(NC(=O)c3ccc(F)cn3)ccc2F)[C@H]1F here.
A: ≤ 5.00

Q: Enter recorded pIC50 with CYP3A4 (Homo sapiens) for C[C@H]1SC(N)=N[C@](C)(c2cccc(NC(=O)c3ccc(OCF)cn3)c2)[C@H]1F here.
A: ≤ 4.70
